Please provide measured IC50 for the entries that follow.
- assayedSystem: ERRα ligand binding domain (ERRα-LBD) (Homo sapiens (Human), UniProt P11474)
- Sequence (P11474 193-421): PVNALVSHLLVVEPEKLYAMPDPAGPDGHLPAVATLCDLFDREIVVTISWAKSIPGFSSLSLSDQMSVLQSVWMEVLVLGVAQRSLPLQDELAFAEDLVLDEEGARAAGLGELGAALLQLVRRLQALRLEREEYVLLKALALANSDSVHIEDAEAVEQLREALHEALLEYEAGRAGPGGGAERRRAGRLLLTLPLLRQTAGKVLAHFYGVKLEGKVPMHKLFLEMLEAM
- assaySummary: ERRα AlphaScreen Assay
- Type: biochemical
- testParameters: disruption of binding of ERRα-LBD protein to biotin-PGC1α-3 co-activator peptide; read-out: mean pIC50 (converted)

Form field, IC50 with ERRα ligand binding domain (ERRα-LBD) (Homo sapiens (Human), UniProt P11474), item COc1ccccc1COc1ccc(C2CC(=O)Nc3n[nH]cc32)cc1OC (centres unmarked) : 100 to 1000 nM

ERRα ligand binding domain (ERRα-LBD) (Homo sapiens (Human), UniProt P11474) IC50 of O=C1CC(c2ccc(OCc3ccccc3Cl)cc2)c2c[nH]nc2N1 (centres unmarked) is 100 to 1000 nM

Tested on ERRα ligand binding domain (ERRα-LBD) (Homo sapiens (Human), UniProt P11474): COC(=O)Cc1ccc(COc2ccc(C3CC(=O)Nc4n[nH]cc43)cc2OC)c(C(F)(F)F)c1 (centres unmarked) . Observed IC50: 100 to 1000 nM

// returns IC50 for O=C1CC(c2ccc(OCc3ccccc3C(F)(F)F)c([N+](=O)[O-])c2)c2c[nH]nc2N1 (centres unmarked) with ERRα ligand binding domain (ERRα-LBD) (Homo sapiens (Human), UniProt P11474); value = 100 to 1000 nM

COc1cc(C2CC(=O)Nc3n[nH]cc32)ccc1OCc1ccc(NC(C)=O)cc1C(F)(F)F (centres unmarked) on ERRα ligand binding domain (ERRα-LBD) (Homo sapiens (Human), UniProt P11474) gives IC50 = 10 to 100 nM

The recorded IC50 with ERRα ligand binding domain (ERRα-LBD) (Homo sapiens (Human), UniProt P11474) for COc1cc(C2CC(=O)Nc3n[nH]cc32)ccc1COc1ccc(C(F)(F)F)cc1C (centres unmarked) was 10 to 100 nM

Reported IC50 (ERRα ligand binding domain (ERRα-LBD) (Homo sapiens (Human), UniProt P11474)) for entry COc1cc(C2CC(=O)Nc3c[nH]nc32)ccc1OCc1ccc(CCO)cc1C(F)(F)F (centres unmarked) is 10 to 100 nM

Form field IC50 for item COC(=O)c1ccccc1COc1ccc(C2CC(=O)Nc3n[nH]cc32)cc1OC (centres unmarked) on ERRα ligand binding domain (ERRα-LBD) (Homo sapiens (Human), UniProt P11474): 10 to 100 nM

Reported ERRα ligand binding domain (ERRα-LBD) (Homo sapiens (Human), UniProt P11474) IC50 for item O=C1CC(c2ccc(OCc3ccccc3C(F)(F)F)cc2F)c2c[nH]nc2N1 (centres unmarked) was 100 to 1000 nM

Let me check: COc1cc(C2CC(=O)Nc3n[nH]cc32)ccc1OCc1ccccc1C(=O)OC(C)C (centres unmarked) , system ERRα ligand binding domain (ERRα-LBD) (Homo sapiens (Human), UniProt P11474), measured IC50 is 100 to 1000 nM

ERRα ligand binding domain (ERRα-LBD) (Homo sapiens (Human), UniProt P11474) data for COc1cc(C2CC(=O)Nc3n[nH]cc32)ccc1COc1ccc(C(F)(F)F)cc1C(F)F (centres unmarked) [Example 117] ; its IC50: 10 to 100 nM

With ERRα ligand binding domain (ERRα-LBD) (Homo sapiens (Human), UniProt P11474) as the test system, O=C1CC(c2ccc(OCc3ccccc3C(F)(F)F)c(C(=O)Nc3nnc[nH]3)c2)c2c[nH]nc2N1 (centres unmarked) showed IC50 of 100 to 1000 nM

For the compound COc1cc(OCc2ccccc2C(F)(F)F)ccc1C1CC(=O)Nc2n[nH]cc21 (centres unmarked) , the measured IC50 on ERRα ligand binding domain (ERRα-LBD) (Homo sapiens (Human), UniProt P11474) was 10 to 100 nM

Considering COc1cc(C2CC(=O)Nc3n[nH]cc32)ccc1OCc1cccc(C(F)(F)F)c1F (centres unmarked) , its IC50 with ERRα ligand binding domain (ERRα-LBD) (Homo sapiens (Human), UniProt P11474) was recorded as 100 to 1000 nM

Summary: COc1cc(C2CC(=O)Nc3n[nH]cc32)ccc1COc1ccc(C)cc1C(F)(F)F (single isomer, unassigned; (+)) , ERRα ligand binding domain (ERRα-LBD) (Homo sapiens (Human), UniProt P11474), IC50 = 10 to 100 nM

IC50 of COc1cc(C2CC(=O)Nc3n[nH]cc32)ccc1OCc1ccc(CC#N)cc1C(F)(F)F (centres unmarked) , assay on ERRα ligand binding domain (ERRα-LBD) (Homo sapiens (Human), UniProt P11474), is 100 to 1000 nM

Here COc1cc(C2CC(=O)Nc3n[nH]cc32)ccc1COc1ccc(C(F)F)cc1C(F)(F)F (single isomer, unassigned; (+)) was tested on ERRα ligand binding domain (ERRα-LBD) (Homo sapiens (Human), UniProt P11474), and its IC50 came to 10 to 100 nM

Summary line: COc1cc(C2CC(=O)Nc3n[nH]cc32)ccc1OCc1ccccc1[N+](=O)[O-] (centres unmarked) , ERRα ligand binding domain (ERRα-LBD) (Homo sapiens (Human), UniProt P11474), reported IC50 = 100 to 1000 nM

Item COc1ccc(COc2ccc(C3CC(=O)Nc4c[nH]nc43)cc2OC)c(C(F)(F)F)c1 (centres unmarked) was tested on ERRα ligand binding domain (ERRα-LBD) (Homo sapiens (Human), UniProt P11474); the reported IC50 is 10 to 100 nM

// compound COc1cc(C2CC(=O)Nc3n[nH]cc32)ccc1OCc1ccc(C(N)=O)cc1C(F)(F)F (centres unmarked) , assay ERRα ligand binding domain (ERRα-LBD) (Homo sapiens (Human), UniProt P11474), IC50 value: 100 to 1000 nM

Measured IC50 (ERRα ligand binding domain (ERRα-LBD) (Homo sapiens (Human), UniProt P11474)), entry O=C1CC(c2ccc(OCc3ccccc3C(F)(F)F)c(F)c2)c2c[nH]nc2N1 (centres unmarked) : 10 to 100 nM

Form field IC50 for item CN(C)c1cc(OCc2ccccc2C(F)(F)F)ccc1C1CC(=O)Nc2n[nH]cc21 (centres unmarked) on ERRα ligand binding domain (ERRα-LBD) (Homo sapiens (Human), UniProt P11474): 100 to 1000 nM

// IC50 (ERRα ligand binding domain (ERRα-LBD) (Homo sapiens (Human), UniProt P11474)) for COc1cc(C2CC(=O)Nc3n[nH]cc32)ccc1OCc1cccc(OCCO)c1C(F)(F)F (centres unmarked) = 100 to 1000 nM

The value of IC50 recorded for O=C1CC(c2ccc(OCc3ccccc3C(F)(F)F)c(Br)c2)c2c[nH]nc2N1 (centres unmarked) when tested on ERRα ligand binding domain (ERRα-LBD) (Homo sapiens (Human), UniProt P11474) reads 10 to 100 nM

Considering COc1cc(C2CC(=O)Nc3n[nH]cc32)ccc1OCc1ccccc1OC(F)F (centres unmarked) , its IC50 with ERRα ligand binding domain (ERRα-LBD) (Homo sapiens (Human), UniProt P11474) was recorded as 10 to 100 nM

Bench note, ERRα ligand binding domain (ERRα-LBD) (Homo sapiens (Human), UniProt P11474): entry COc1cc(-c2cc(=O)[nH]c3n[nH]cc23)ccc1OCc1ccncc1C(F)(F)F , its IC50 = 100 to 1000 nM

Entry COc1cc(C2CC(=O)Nc3n[nH]cc32)ccc1OCc1ccc(C(C)(C)CO)cc1C(F)(F)F (centres unmarked) under ERRα ligand binding domain (ERRα-LBD) (Homo sapiens (Human), UniProt P11474) had IC50 of 10 to 100 nM

Measured on ERRα ligand binding domain (ERRα-LBD) (Homo sapiens (Human), UniProt P11474), COc1cc(C2CC(=O)Nc3n[nH]cc32)ccc1OCc1ccncc1C(F)(F)F (centres unmarked) has a documented IC50 of 100 to 1000 nM

ERRα ligand binding domain (ERRα-LBD) (Homo sapiens (Human), UniProt P11474) IC50 of COc1cc(C2CC(=O)Nc3n[nH]cc32)ccc1OCc1ccc(F)cc1C(F)(F)F (centres unmarked) is 10 to 100 nM

With ERRα ligand binding domain (ERRα-LBD) (Homo sapiens (Human), UniProt P11474) as the test system, COc1cc(C2CC(=N)Nc3n[nH]cc32)ccc1OCc1ccccc1C(F)(F)F (centres unmarked) showed IC50 of 100 to 1000 nM

Given the compound COc1cc(C2CC(=O)Nc3n[nH]cc32)ccc1OCc1cc(Cl)ccc1Cl (centres unmarked) and test system ERRα ligand binding domain (ERRα-LBD) (Homo sapiens (Human), UniProt P11474), the measured IC50 is 100 to 1000 nM

Form field IC50 for item COc1cc(C2CC(=O)Nc3n[nH]cc32)ccc1OCc1ccc(NC(=O)CN)cc1C(F)(F)F (centres unmarked) on ERRα ligand binding domain (ERRα-LBD) (Homo sapiens (Human), UniProt P11474): 100 to 1000 nM
